The reported numbers originate from patent US9598434B2.

endpoint: melting point

// below: answered compounds
| compound | melting point |
| --- | --- |
| Fc1cccc(CN2CCOc3cc4c(c(C5CC5)c32)CCNCC4)c1F.O=C(O)/C=C/C(=O)O | 157 to 159 °C |
| COCCN1CCOc2cc3c(c(-c4cccc(C)c4)c21)CCNCC3.O=C(O)/C=C/C(=O)O [Example 78] | 173 to 176 °C |
| FC(F)CN1CCOc2cc3c(c(C4CC4)c21)CCNCC3.O=C(O)/C=C/C(=O)O | 198 to 201 °C |
| c1c2c(cc3c1OCCN3CC1CC1)CCNCC2 [Example 56] | 179 to 182 °C |
| O=C(O)/C=C/C(=O)O.c1c2c(c(C3CC3)c3c1OCCN3CC1CCOC1)CCNCC2 (stereo not drawn) | 117 to 118 °C |
| COCC(CN1CCOc2cc3c(c(C4CC4)c21)CCNCC3)Oc1ccc(F)cc1F.O=C(O)/C=C/C(=O)O (stereo not drawn) | 150 to 151 °C |
| CC(C)C(=O)N1CCCc2cc3c(c(Cl)c21)CCNCC3.Cl [Example 21] | 245 to 249 °C |
| COCCN1CCOc2cc3c(c(-c4ccccc4F)c21)CCNCC3.O=C(O)/C=C/C(=O)O | 179 to 182 °C |

// melting point lookup, compound = O=C(O)CCC(=O)O.O=C(OCCc1cccc(F)c1)N1CCOc2cc3c(cc21)CCNCC3 , result: 162 to 164 °C

# melting point of FCCCN1CCOc2cc3c(c(C4CC4)c21)CCNCC3.O=C(O)/C=C/C(=O)O [Example 141] = 144 to 147 °C

Form field melting point, entry COCC(CN1CCOc2cc3c(c(C4CC4)c21)CCNCC3)Oc1ccc(F)cc1.O=C(O)/C=C/C(=O)O (stereo not drawn) : 138 to 140 °C

Value of measured melting point for the entry COCCCN1CCOc2cc3c(cc21)CCNCC3.O=C(O)/C=C/C(=O)O [Example 59] : 141 to 145 °C

melting point for O=C(O)/C=C/C(=O)O.c1cc2c(cc1CN1CCOc3cc4c(c(C5CC5)c31)CCNCC4)OCCO2 [Example 291] is 165 to 168 °C

melting point measured on Cc1c2c(cc3c1N(C[C@H](C)F)CCO3)CCNCC2.O=C(O)/C=C/C(=O)O = 165 to 168 °C

Documented melting point of COCCN1CCOc2c1cc1c(c2Cl)CCNCC1.O=C(O)CCC(=O)O : 139 to 141 °C

* * *

Molecular target: human 5-HT2C receptor (Homo sapiens)
Construct: expressed in transfected cells
Sequence (P28335 33-458): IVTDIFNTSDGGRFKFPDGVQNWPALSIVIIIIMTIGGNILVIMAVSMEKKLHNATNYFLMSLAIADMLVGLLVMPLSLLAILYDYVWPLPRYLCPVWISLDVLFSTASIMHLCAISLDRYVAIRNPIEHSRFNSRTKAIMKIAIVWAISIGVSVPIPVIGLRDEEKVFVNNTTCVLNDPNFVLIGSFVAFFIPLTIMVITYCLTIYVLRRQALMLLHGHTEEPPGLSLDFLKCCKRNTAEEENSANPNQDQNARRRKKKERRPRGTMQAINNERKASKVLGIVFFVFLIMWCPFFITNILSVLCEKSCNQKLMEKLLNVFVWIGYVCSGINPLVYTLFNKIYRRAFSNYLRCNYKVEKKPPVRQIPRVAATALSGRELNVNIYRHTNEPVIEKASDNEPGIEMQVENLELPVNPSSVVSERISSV
Assay: Evaluation of 5-HT2C receptor agonist activity (intracellular calcium increase, FLIPR, CHO cells stably expressing the receptor)
Format: cell-based
Conditions: CHO cells stably expressing INI type human 5-HT2C receptor; intracellular Ca increase; logistic regression; read-out: 5-HT2C agonist activity EC50
Experimental: The agonist activity of the compound of the formula (I) on the 5-HT2C receptor was confirmed by the method shown below. The human 5-HT2C receptor agonist activity was evaluated by measuring the increase of the ligand-dependent intracellular calcium concentration. CHO cells which stably expressing a human 5-HT2C receptor were used. […] The difference between a maximum value and a minimum value in the change of the intracellular Ca concentration was determined and kept as measurement data. […]
endpoint: EC50 (nM)
Answer format: numeric, nM implied, no suffix.

# EC50 of Fc1ccc(F)c(CN2CCOc3cc4c(c(C5CC5)c32)CCNCC4)c1 [Example 283] = 1.7

Measured EC50, COCCN1c2c(cc3c(c2C2CC2)CCNCC3)OC[C@@H]1C [Example 292] : 0.65

Input c1ccc(OCCN2CCOc3cc4c(c(C5CC5)c32)CCNCC4)cc1 [Example 268] . Output EC50: 0.92

response.value for CC(C)OCCN1CCOc2cc3c(cc21)CCNCC3 [Example 76] (field: EC50) = 1.9

Value of measured EC50 for the entry CCO[C@H](C)CN1CCOc2cc3c(c(C4CC4)c21)CCNCC3.O=C(O)/C=C/C(=O)O [Example 315] : 2.8

GET /value?item= c1c2c(c(C3CC3)c3c1OCCN3C[C@@H]1CCCO1)CCNCC2 [Example 215] &field=EC50 returns 1

Item: Cc1ccccc1CN1CCOc2cc3c(c(C4CC4)c21)CCNCC3.O=C(O)/C=C/C(=O)O [Example 276] | EC50: 6.4

* * *

Quick list: melting point per entry.

Answered cases to consult:
| molecule.smiles | result |
| --- | --- |
| CCCc1c2c(cc3c1N(C)CCO3)CCNCC2 | 151 to 152 °C |
| CCc1c2c(cc3c1N(C)CCO3)CCNCC2 | 184 to 185 °C |
| COCCN1c2cc3c(cc2OC[C@H]1C)CCNCC3.O=C(O)/C=C/C(=O)O | 133 to 136 °C |

// moving on: another record for melting point
Looking up O=C(O)CCC(=O)O.c1ccc(OCCN2CCOc3cc4c(cc32)CCNCC4)cc1 , I see its melting point listed as 132 to 134 °C
